All values here come from patent US20070066800A1.

Target: Hu TNFR IgG (SEQ ID NO: 110) (Homo sapiens, UniProt P19438)
Construct: Human TNFR1 IgG fusion polypeptide
Sequence (P19438 with tags, fused parts or gaps): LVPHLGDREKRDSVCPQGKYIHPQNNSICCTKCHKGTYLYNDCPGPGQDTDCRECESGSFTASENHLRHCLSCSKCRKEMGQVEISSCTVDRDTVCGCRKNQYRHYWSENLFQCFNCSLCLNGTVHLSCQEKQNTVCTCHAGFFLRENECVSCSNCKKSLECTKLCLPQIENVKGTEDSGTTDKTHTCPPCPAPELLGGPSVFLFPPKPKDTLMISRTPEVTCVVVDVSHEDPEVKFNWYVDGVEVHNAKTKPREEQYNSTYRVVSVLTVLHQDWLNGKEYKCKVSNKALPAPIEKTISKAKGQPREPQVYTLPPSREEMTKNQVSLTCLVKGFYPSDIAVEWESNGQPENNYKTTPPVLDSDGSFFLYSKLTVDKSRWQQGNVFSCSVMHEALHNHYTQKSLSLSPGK
Assay: Ic50 cross-reactivity ELISA, Hu TNFR IgG
Type: binding
Settings: Table IV cross-reactivity; phage clones

substance: Hd5-11: phage-derived DR5 binding peptide, class C1, SEQ ID NO: 15, first generation (G1) lead (QEVCMTSCDKLMKCNWMAAM)
IC50 [nM]: 1000
